# target-under-test: M1 receptor (recombinant human membrane, CHO cells) (Homo sapiens)
# Construct: 1706299
# Sequence (P11229 whole entry): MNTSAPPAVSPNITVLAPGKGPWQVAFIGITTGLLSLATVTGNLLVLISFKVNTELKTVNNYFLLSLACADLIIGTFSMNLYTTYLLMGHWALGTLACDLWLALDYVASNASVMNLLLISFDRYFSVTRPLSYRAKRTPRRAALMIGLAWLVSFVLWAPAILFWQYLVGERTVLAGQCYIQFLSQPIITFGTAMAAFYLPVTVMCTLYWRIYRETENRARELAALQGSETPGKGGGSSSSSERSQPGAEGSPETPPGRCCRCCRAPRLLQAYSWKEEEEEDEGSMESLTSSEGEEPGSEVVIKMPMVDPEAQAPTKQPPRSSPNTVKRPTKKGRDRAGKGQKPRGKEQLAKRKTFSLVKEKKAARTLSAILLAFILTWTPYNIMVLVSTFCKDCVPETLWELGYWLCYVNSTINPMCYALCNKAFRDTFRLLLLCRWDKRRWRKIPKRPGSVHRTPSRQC
# experiment-notes: radioligand receptor binding assay, [3H]-NMS displacement
# cond: mean ± S.D.; 0.1 nM [3H]-NMS; assayed up to 100 or 30 μM
Entries and their measured IC50 follow.

Field: example entries. Status: answers known.
INSERT INTO results (compound, value_kind, result) VALUES
  ('CC(C)=C[C@@H]1CO[C@]23C[C@]4(CO2)[C@H](CC[C@@H]2[C@@]5(C)CC[C@H](O[C@@H]6OC[C@H](O)[C@H](O[C@@H]7O[C@H](CO)[C@@H](O)[C@H](O)[C@H]7O)[C@H]6O[C@@H]6O[C@@H](CO)[C@H](O)[C@H]6O)C(C)(C)[C@@H]5CC[C@]24C)[C@H]3[C@@]1(C)O', 'IC50', '> 100 µM'),
  ('CC(C)=CC=CC(C)=CC1CCC2C3(C)CCC(O)C(C)(C)C3CCC2(C)C12COC(=O)C2 (stereo not drawn)', 'IC50', '0.8 µM'),
  ('CC(C)=C[C@H]1C[C@](C)(O)[C@@H]2[C@H]3CC[C@@H]4[C@@]5(C)CC[C@H](O[C@@H]6OC[C@H](O)[C@H](O[C@@H]7O[C@H](CO)[C@@H](O)[C@H](O)[C@H]7O)[C@H]6O[C@@H]6O[C@@H](CO)[C@H](O)[C@H]6O)C(C)(C)[C@@H]5CC[C@@]4(C)[C@@]34CO[C@@]2(C4)O1 [Bacopaside X, bacopaside X]', 'IC50', '> 100 µM');

For reference, reported IC50 for CC(C)=CC1COC23CC4(CO2)C(CCC2C5(C)CCC(OC6OC(CO)C(O)C(OC7OC(CO)C(O)C(O)C7O)C6OC6OC(CO)C(O)C6O)C(C)(C)C5CCC24C)C3C1(C)O (stereo not drawn) [Bacopaside II, bacopaside II] stands at > 30 µM

For reference, reported IC50 for CC(C)=C[C@H]1C[C@](C)(O)[C@@H]2[C@H]3CC[C@@H]4[C@@]5(C)CC[C@H](O[C@@H]6O[C@H](CO)[C@@H](O)[C@H](O[C@@H]7O[C@H](CO)[C@@H](O)[C@H](O)[C@H]7O)[C@H]6O[C@@H]6O[C@@H](CO)[C@H](O)[C@H]6O)C(C)(C)[C@@H]5CC[C@@]4(C)[C@@]34CO[C@@]2(C4)O1 [Bacoside A3, bacoside A3] stands at > 100 µM

For reference, reported IC50 for CC(C)=CC1CC(C)(O)C2C3CCC4C5(C)CCC(O)C(C)(C)C5CCC4(C)C34COC2(C4)O1 (stereo not drawn) stands at > 30 µM

Source: paper PMC4428790
